systemTested: T1, pCD163-SRCR1-9-huFc (porcine, UniProt Q2VL90 47-1028, limits assumed)
T1 construct: also called pCD163:SRCR1-9-Fc; pCD163SRCR1-9-Fc; not shown: human Fc (huFc)
T1 sequence: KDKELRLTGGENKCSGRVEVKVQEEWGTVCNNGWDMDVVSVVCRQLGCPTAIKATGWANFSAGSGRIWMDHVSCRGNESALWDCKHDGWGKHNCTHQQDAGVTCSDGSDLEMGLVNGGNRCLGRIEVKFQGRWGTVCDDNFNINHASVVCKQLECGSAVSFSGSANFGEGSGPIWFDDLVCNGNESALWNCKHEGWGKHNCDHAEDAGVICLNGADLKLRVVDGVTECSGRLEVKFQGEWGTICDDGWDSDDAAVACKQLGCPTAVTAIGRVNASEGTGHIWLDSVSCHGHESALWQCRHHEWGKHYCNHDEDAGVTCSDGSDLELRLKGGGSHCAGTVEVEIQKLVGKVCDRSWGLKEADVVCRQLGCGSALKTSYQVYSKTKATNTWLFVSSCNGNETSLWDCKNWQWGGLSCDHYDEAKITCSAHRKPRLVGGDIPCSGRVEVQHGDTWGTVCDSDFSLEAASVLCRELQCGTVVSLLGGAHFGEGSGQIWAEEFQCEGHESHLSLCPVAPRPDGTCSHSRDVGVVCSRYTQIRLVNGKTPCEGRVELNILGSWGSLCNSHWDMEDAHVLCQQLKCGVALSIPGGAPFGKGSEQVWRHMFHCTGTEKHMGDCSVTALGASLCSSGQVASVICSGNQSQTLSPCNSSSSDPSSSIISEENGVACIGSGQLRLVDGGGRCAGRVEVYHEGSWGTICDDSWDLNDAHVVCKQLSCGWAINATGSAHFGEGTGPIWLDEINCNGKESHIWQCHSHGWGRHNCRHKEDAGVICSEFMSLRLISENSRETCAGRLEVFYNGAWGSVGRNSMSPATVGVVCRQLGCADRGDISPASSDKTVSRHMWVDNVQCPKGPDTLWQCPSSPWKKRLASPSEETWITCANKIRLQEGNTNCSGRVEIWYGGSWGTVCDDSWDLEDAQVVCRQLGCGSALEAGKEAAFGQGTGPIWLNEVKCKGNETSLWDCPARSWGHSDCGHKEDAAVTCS
assayName: SPR (Biacore 3000), antigen amine-coupled on CM5, VHH injected, pH 7.4
Source text: To assess the affinity of selected purified clones to pCD163, pCD163-SRCR1-9-huFc or pCD163-SRCR4-7-huFc proteins were coated by amine coupling on a CM5 sensor ship (GE Healthcare). Surface plasmon resonance (SPR) (Biacore 3000, GE Healthcare) was used to determine the binding kinetics of selected single domain antibodies at pH7.4. […]
Field: Kd. Provide a value for each of the binders that follow.
One number for each entry, in nM.

I'm hoping you can list Kd for every binder here, please.
1. VHH 016 (2H11) (VHH, Llama single domain antibody; also called 77(#16); VHCDR3 77(#16); not shown: tags: c-myc tag in periplasmic extract (ELISA, FACS); FLAG and His tags in purified VHH (SPR, infection assays)) VHH: EVQLVESGGGLVQAGGSLRLSCAASGRTFAPGSMGWFRQAPGKEREFVAAHRWSGSAYYADYADSVEGRFTISRDYAKNMVYLQMNSLKPGDTAVYYCAAGVGSAAQYTYWGRGTQVTVSS
2. VHH 002 (1B04) (VHH, Llama single domain antibody; also called 76(#2); VHCDR3 76(#2); not shown: tags: c-myc tag in periplasmic extract (ELISA, FACS); FLAG and His tags in purified VHH (SPR, infection assays)) VHH: QVQLVESGGGLVQAGGSLRLSCAASGLTFVTYSMGWFRQAPGKEREFVAAHRWSGSAYYAEHADSVEGRFTISRDYAKNMLYLQMNSLKHEDTAVYYCAAGVGSAAQYRYWGRGTQVTVSS
3. VHH 018 (3E01) (VHH, Llama single domain antibody; also called 49(#18); VHCDR3 49(#18); not shown: tags: c-myc tag in periplasmic extract (ELISA, FACS); FLAG and His tags in purified VHH (SPR, infection assays)) VHH: QVQLQESGGGLVQVGGSLRLSCVASGRAPSRYVMGWFRQAPGQEREFVAGIAWSGRAPYADSVKGRSTISRDNAKNTVYLQMNSLKPEDTGVYYCAGGEGAIRWTTLDAYDYWGQGTQVTVSS

1. 44.3
2. 20
3. 16.5
